- testedSystem: Tyrosine-protein kinase TXK (Homo sapiens) (UniProt P42681);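 also: each listed value is a mean percent inhibition of TXK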
- Sequence (whole entry): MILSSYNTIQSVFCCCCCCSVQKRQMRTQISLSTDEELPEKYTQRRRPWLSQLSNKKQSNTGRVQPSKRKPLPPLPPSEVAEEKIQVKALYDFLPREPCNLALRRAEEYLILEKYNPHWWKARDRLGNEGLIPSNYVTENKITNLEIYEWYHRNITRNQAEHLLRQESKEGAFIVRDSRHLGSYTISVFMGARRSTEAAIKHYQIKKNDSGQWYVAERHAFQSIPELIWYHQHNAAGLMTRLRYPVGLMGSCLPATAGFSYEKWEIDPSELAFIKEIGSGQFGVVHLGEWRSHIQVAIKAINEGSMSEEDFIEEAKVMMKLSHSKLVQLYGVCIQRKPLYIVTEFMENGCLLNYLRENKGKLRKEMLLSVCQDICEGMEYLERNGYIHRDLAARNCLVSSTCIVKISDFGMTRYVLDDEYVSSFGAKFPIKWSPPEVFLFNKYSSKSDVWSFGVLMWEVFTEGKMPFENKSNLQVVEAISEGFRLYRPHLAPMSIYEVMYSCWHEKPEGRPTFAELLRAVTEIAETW
- conditionSet: at 0.1 µM
Provide the recorded inhibition for the entries that follow.
Give the number; % is assumed, so skip it.

Entry Cc1ccc(C(=O)NC2CC2)cc1-c1ccc2[nH]ncc2c1 , inhibition reported as -2.22

response.value for Cc1ccc(NC(=O)CC2CC2)cc1-c1ccc(C(=O)NCC2CC2)cc1 (field: inhibition) = 3.64

Briefly, inhibition measured for COc1cc2ncnc(Nc3ccc(C)c(O)c3)c2cc1OC : 8.65

# inhibition (compound: CS(=O)(=O)Nc1cccc(-c2ccc3c(NC(=O)C4CC4)n[nH]c3c2)c1 ) is -1.12

Per the record, NC(=O)c1cccc(Nc2nccc(Nc3cccc(F)c3)n2)c1 has inhibition of 6.53

Notebook: Cc1ccc2c(c1)/C(=N/Nc1ccc(S(N)(=O)=O)cc1)C(=O)N2 , inhibition read as 1.24

Lab book: inhibition of O=S(=O)(CCOCc1ccc(-c2ccc3ncnc(Nc4ccc(OCc5cccc(F)c5)c(Cl)c4)c3c2)o1)c1ccccc1 noted as -0.26

So, Cc1nc(-c2ccccc2)n2nc(NCCCN3CCOCC3)ncc12 ? Its inhibition was 4.46

Sure, the documented inhibition for Cc1ccc2c(-c3ccnc(Nc4cccc(C(F)(F)F)c4)n3)c(-c3ccccc3)nn2n1 is 6.16

Documented inhibition of COc1cc2ncnc(Nc3ccc4c(cnn4Cc4ccccc4)c3)c2cc1OC : 0.73

In plain terms, Oc1cccc(-c2nc(-c3ccccc3)[nH]c2-c2ccncc2)c1 has a documented inhibition of 3.28

// field: inhibition; key: COc1cc2ncn(-c3cc(OCc4ccccc4S(C)(=O)=O)c(C#N)s3)c2cc1OC ; value = 10.8

So for Cc1cc(O)cc(C)c1/C=C/c1cncc(C(=O)N(C)C)c1 , the logged inhibition turned out to be 2.92

// inhibition value for NS(=O)(=O)c1ccc(N/N=C2\C(=O)Nc3ccc(Cl)cc32)cc1 : 3.22

Record O=C1Nc2ccc(-c3cccnc3)cc2C1=Cc1cc(Br)c(O)c(Br)c1 , field inhibition: 2.22

Value of measured inhibition for the entry NC(=O)c1sc(-n2cnc3ccccc32)cc1OCc1ccccc1Br : 3.34

Entry COc1cccc(-n2nc(C)c3c(N/N=C(\C)c4ccncc4)ncnc32)c1 , inhibition reported as 3.18

Lookup result for CC(C)c1ccc(Nc2nccc(-c3cnn4ncccc34)n2)cc1 ; measured inhibition: 1.69

Quick note, inhibition for CS(=O)(=O)CCNCc1nc(-c2ccc3ncnc(Nc4ccc(OCc5cccc(C(F)(F)F)c5)cc4)c3c2)cs1 landed at 6.88

compound COc1cc(/C=N/Nc2ncnc3c2cnn3C(C)C)ccc1O , inhibition observed: 3.5

inhibition for CCn1c(-c2nonc2N)nc2ccc(F)cc21 is 1.94

Lab note: measured inhibition of Nc1nccc(-c2c(-c3ccc(F)cc3)nn3cc(C(F)(F)F)ccc23)n1 was 0.11

The compound Cc1cc(-c2ccccn2)cc(C)c1/C=C/c1cncc(-c2nn[nH]n2)c1 showed inhibition equal to 2.93

So, O=C(Nc1ccc(Oc2ccc3[nH]c(NC(=O)c4ccco4)nc3c2)cc1)Nc1cc(C(F)(F)F)ccc1F ? Its inhibition was -1.98

inhibition measured on Nc1nccc(-c2c(-c3ccc(F)cc3)ncn2CCCN2CCOCC2)n1 = 3

Entry C[C@@H](Oc1cc(-n2cnc3ccc(OC[C@@H](O)CO)cc32)sc1C(N)=O)c1ccccc1Cl , inhibition reported as 0.37

The recorded inhibition for N#Cc1c(NC(=O)c2ccccc2F)sc2c1CCCC2 is -0.16

The measured inhibition associated with c1ccc(Cc2nc3ccc(Nc4ncnc5ccccc45)cc3[nH]2)cc1 reads 2.03

compound CC(C)c1ccc2c(c1)NC(=O)/C2=N/Nc1ccc(S(N)(=O)=O)cc1 , inhibition observed: 1.51

Quick note, inhibition for COC(=O)c1cncc(/C=C/c2c(C)cc(O)cc2C)c1 landed at 4.44

Briefly, inhibition measured for NS(=O)(=O)c1cccc(Nc2cc(-c3ccc(F)cc3)n[nH]2)c1 : 3.74

Looking up ON=C1CCc2cc(-c3nc(C4CCNCC4)[nH]c3-c3ccncc3)ccc21 , I found its inhibition recorded as 1.85

Looking up N#Cc1cccc(Nc2nccc(-c3cnn4ncccc34)n2)c1 , I see its inhibition listed as 5.32

Entry CN(c1ccc(NC(=O)Nc2ccc(OC(F)(F)F)cc2)cc1)c1ccnc(Nc2cccc(S(N)(=O)=O)c2)n1 — recorded inhibition = -0.18

The value of inhibition measured for the compound COc1cccc(-n2ncc3c(N/N=C/c4ccc(S(C)(=O)=O)cc4)ncnc32)c1 turned out to be 0.02

Reported inhibition for NS(=O)(=O)c1ccc(Nc2cc(-c3cccc(O)c3)n[nH]2)cc1 was 2.77
